Entry source: patent US20240174647A1

# Target Of Assay: wt human LRRK2, catalytic site (Homo sapiens (Human))
# Experiment Notes: TR-FRET LanthaScreen Tb Kinase Activity Assay (LRRK2 kinase inhibition)
# Run Parameters: 2 nM wt human LRRK2, 400 nM fluorescein-ERM (LRRKtide) peptide, 38 μM ATP, 120 minutes at room temperature
Measured Parameter: IC50

structure_notation=CNc1nc(Nc2ccc3cnn(C)c3c2C)ncc1C(F)(F)F target_of_assay="wt human LRRK2, catalytic site (Homo sapiens (Human))" measured_parameter=IC50 result="50 to 200 nM"
structure_notation=CNc1nc(Nc2ccc3cn[nH]c3c2)ncc1C(F)(F)F target_of_assay="wt human LRRK2, catalytic site (Homo sapiens (Human))" measured_parameter=IC50 result="< 50 nM"
structure_notation=CNc1nc(Nc2ccc(C3CCOCC3)c3c2cnn3C)ncc1C(F)(F)F target_of_assay="wt human LRRK2, catalytic site (Homo sapiens (Human))" measured_parameter=IC50 result="< 50 nM"
structure_notation=CS(=O)(=O)n1ncc2c(Nc3ncc(C(F)(F)F)c(N[C@@H]4CCOC4)n3)cccc21 target_of_assay="wt human LRRK2, catalytic site (Homo sapiens (Human))" measured_parameter=IC50 result="< 50 nM"
structure_notation=Cn1ncc2c(Nc3ncc(Cl)c(NC4CC4)n3)cccc21 target_of_assay="wt human LRRK2, catalytic site (Homo sapiens (Human))" measured_parameter=IC50 result="< 50 nM"

###

pIC50 values by entry
# Target Of Assay: wt human LRRK2, catalytic site (Homo sapiens (Human), UniProt Q5S007)
# Sequence (Q5S007 1879-2138): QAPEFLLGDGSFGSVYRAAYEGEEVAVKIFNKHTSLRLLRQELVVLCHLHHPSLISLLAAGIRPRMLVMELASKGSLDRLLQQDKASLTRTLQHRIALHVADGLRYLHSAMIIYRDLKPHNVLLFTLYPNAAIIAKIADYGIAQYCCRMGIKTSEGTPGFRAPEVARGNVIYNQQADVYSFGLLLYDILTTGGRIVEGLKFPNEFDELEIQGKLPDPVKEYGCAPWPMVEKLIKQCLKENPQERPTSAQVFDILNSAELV
# Experiment Notes: TR-FRET LanthaScreen Tb Kinase Activity Assay (LRRK2 kinase inhibition)
# Run Parameters: 2 nM wt human LRRK2, 400 nM fluorescein-ERM (LRRKtide) peptide, 38 μM ATP, 120 minutes at room temperature
pIC50: −log10 of the molar value.
Measured Parameter: pIC50

structure_notation=CNc1nc(Nc2ccc3cn[nH]c3c2C)ncc1C(F)(F)F result="> 7.30"
structure_notation=CNc1nc(Nc2cn(CC#N)c3cnccc23)ncc1C(F)(F)F result="> 7.30"
structure_notation=CCNc1nc(Nc2cccc3c2cnn3S(C)(=O)=O)ncc1Cl result="> 7.30"
structure_notation=CNc1nc(Nc2cccc3c2cnn3S(C)(=O)=O)ncc1C(F)(F)F result="> 7.30"
structure_notation=CNc1nc(Nc2cc(/C=C/C(=O)N3CCOCC3)cc3c2cnn3C)ncc1C(F)(F)F result="> 7.30"

###

# Target Of Assay: wt human LRRK2, catalytic site (Homo sapiens (Human))
# Experiment Notes: TR-FRET LanthaScreen Tb Kinase Activity Assay (LRRK2 kinase inhibition)
# Run Parameters: 2 nM wt human LRRK2, 400 nM fluorescein-ERM (LRRKtide) peptide, 38 μM ATP, 120 minutes at room temperature
pIC50: −log10 of the molar value.
Measured Parameter: pIC50

compound="CNc1nc(Nc2ccc3cnn(C)c3c2)ncc1C(F)(F)F [Example 12]" result="> 7.30"
compound="CS(=O)(=O)CCn1ncc2c(Nc3ncc(C(F)F)c(NC4CC4)n3)cccc21 [Example 192]" result="> 7.30"
compound="CNc1nc(Nc2ccc3cnn(C)c3c2OC)ncc1C(F)(F)F [Example 14]" result="6.70 to 7.30"
compound="CNc1nc(Nc2cccc3nncn23)ncc1C(F)(F)F [Example 124]" result="≤ 6.70"
compound="Cc1ccc(Nc2ncc(C(F)(F)F)c(NC3CC3)n2)c2cnn(CCS(C)(=O)=O)c12 [Example 174]" result="> 7.30"
